# Species: Homo sapiens
# ASSAY_METHOD_TEXT: Activation of recombinant His-tagged human cytosolic GPX4 U46C mutant expressed in Escherichia coli M15 assessed as increase in oxidized glutathione-mediated oxidation of NADPH to NADP+ at 200 uM using tert-butyl hydroperoxide as substrate preincubated for 5 mins followed by substrate addition measured for 6 mins by glutathione reductase enzyme coupled fluorescence assay relative to control
MEASURE_NAME: Activity (%)

STRUCTURE: CN1CCN(C(S)=Nc2ccc(S(N)(=O)=O)cc2)CC1
MEASURE_NAME: Activity
READOUT_NUMBER: 115

STRUCTURE: NCCCNS(=O)(=O)c1ccc(NC(=S)NC2CCCC2)cc1
MEASURE_NAME: Activity
READOUT_NUMBER: 121

STRUCTURE: NS(=O)(=O)c1ccc(NC(S)=NCc2ccc(Cl)cc2)cc1
MEASURE_NAME: Activity
READOUT_NUMBER: 127
